# test target: BIR3 domain (residues 241-356) of human XIAP (Homo sapiens, UniProt P98170)
# Construct: the BIR3 domain (residues 241-356) of human XIAP fused to His-tag; His-tag
# Sequence (P98170 241-356): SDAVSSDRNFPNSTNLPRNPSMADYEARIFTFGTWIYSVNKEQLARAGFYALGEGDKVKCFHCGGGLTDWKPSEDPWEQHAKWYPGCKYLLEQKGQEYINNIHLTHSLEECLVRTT
# protocol description: XIAP binding assay, FP-based (Smac-Flu tracer)
# condition info: Table 5
measured attribute: log10 of IC50 (log10 of the value in µM)

- CC(C)c1ccc(CCc2cccc(CCC3=C(O)C(=O)C=C(O)C3=O)c2)cc1 [CJ-294]: 0.58
- Cc1ccc(CNC(=O)c2cccc(CCC3=C(O)C(=O)C=C(O)C3=O)c2)cc1: 0.72
- O=C1C=C(O)C(=O)C(CCc2ccccc2)=C1O: 1.95
- CCCCc1cccc(CCC2=C(O)C(=O)C=C(O)C2=O)c1: 1.44
- Cc1cccc(NC(=O)c2cccc(CCC3=C(O)C(=O)C=C(O)C3=O)c2)c1: 0.69
- O=C1C=C(O)C(=O)C(CCc2cccc(C(=O)Nc3ccc(Cl)c(Cl)c3)c2)=C1O: 1.09
- CC(C)CCCCCC1=CC(=O)C=C(O)C1=O: 1.79
- Cc1ccc(CCc2cccc(CCC3=C(O)C(=O)C=C(O)C3=O)c2)cc1: 0.33
- O=C1C=C(O)C(=O)C(CCCCc2ccccc2)=C1: 2.55
- O=C1C(O)=C(CCc2cccc(CCc3ccccc3)c2)C(=O)C(O)=C1CCc1ccccc1: 1.16
- Cc1ccc(NC(=O)c2cccc(CCC3=C(O)C(=O)C=C(O)C3=O)c2)cc1: 0.21

====

Recorded IC50, one value per entry.
# test target: BIR3 domain (residues 241-356) of human XIAP (Homo sapiens, UniProt P98170)
# Construct: the BIR3 domain (residues 241-356) of human XIAP fused to His-tag; His-tag
# protocol description: XIAP binding assay, FP-based (Smac-Flu tracer)
# condition info: Table 5
measured attribute: IC50 (µM)

* O=C1C=C(O)C(=O)C(CCc2cccc(CCc3cccc(Cl)c3)c2)=C1O [EW-7] | 9.18
* Cc1ccccc1NC(=O)c1cccc(CCC2=C(O)C(=O)C=C(O)C2=O)c1 [CJ-323] | 11.6
* CC(C)c1ccc(CCc2cccc(CCC3=C(O)C(=O)C=C(O)C3=O)c2)cc1 [CJ-301] | 3.42
* CCC1=C(O)C(=O)C=C(O)C1=O [EW-9] | 475
* O=C1C=C(O)C(=O)C(CCc2cccc(CCc3ccc(Cl)cc3)c2)=C1O [EW-8] | 8.05
